biological target: recombinant SARS-CoV-2 RBD with C-terminal AviTag (SARS-CoV-2, UniProt P0DTC2 319-541); experiment: ELISA, competition with coated ACE2-Fc for RBD
Readout Label: pIC50
As a rule, pIC50 stands for the negative log10 of the concentration, concentration in M.

PP1176 MBP-5HVZ-PAPA-R2a-F3-H6 (VHH, Form: Dimer) VHH: QVQLVESGGGLVQPGGSLRLSCAASGSITSINWMHWFRQAPGKDREGVASISQTGRGSYADSVKGRFTISRDNAKNTVYLQMNSLKPEDTAVYYCAAASRTGTPYNYWGQGTQVTVSS    7.98
PP1143 MBP-5HVZ-PAPA-R2b-D5-H6 (VHH, Form: Dimer) VHH: QVQLVESGGGLVQPGGSLRLSCAASGYADEINMVHWYRQAPGKGREFVAAIASGGSTFYADSVKGRFTISRDNAKNTVYLQMNSLKPEDTAVYYCAAIPRPSLSYAHDYAYWGQGTQVTVSS    8.08
dimeric VHH (VHH-5HVZ-MBP) R2B-E6 (VHH) VHH: QVQLVESGGGLVQPGGSLRLSCAASGGVTRGNAMAWYRQAPGKQREIVAAIDNGGSHAYGDSVKGRFTISRDNAKNTVYLQMNSLKPEDTAVYYCAVFPDHDSEQASIDRVYWGQGTQVTVSS    7.75

// pIC50 lookup, key: PP1155 MPB-scTRP-PAPA-R2b-D5-H6 (VHH, Form: Trimer) VHH: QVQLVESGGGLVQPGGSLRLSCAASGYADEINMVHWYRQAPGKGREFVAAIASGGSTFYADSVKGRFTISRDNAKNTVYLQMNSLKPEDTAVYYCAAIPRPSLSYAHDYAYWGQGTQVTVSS 7.33
